Values were extracted from ChEMBL document CHEMBL1138218.

biological target: Apoptosis regulator Bcl-2 (Homo sapiens); assay: Growth inhibition of Jurkat cell overexpressing Bcl2; assay type: functional, cell-based
Sequence (P10415 whole entry): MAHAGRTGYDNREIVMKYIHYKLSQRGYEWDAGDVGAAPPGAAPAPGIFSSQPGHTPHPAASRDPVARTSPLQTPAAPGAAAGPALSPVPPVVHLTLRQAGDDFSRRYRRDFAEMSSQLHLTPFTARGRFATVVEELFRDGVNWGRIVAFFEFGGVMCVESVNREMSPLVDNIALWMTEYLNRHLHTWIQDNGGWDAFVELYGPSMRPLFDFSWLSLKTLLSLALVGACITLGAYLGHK
# 1 = GI50 below 10 µM (exclusive); 0 = GI50 at/above 10 µM

compound: CCOC(=O)C1=C(N)Oc2ccc(C3CCCC3)cc2C1C(C#N)C(=O)OCC (stereo not given)
classification: 1

compound: Nc1nc2[nH]cnc2c(=S)[nH]1
classification: 0

compound: CCOC(=O)C1=C(N)Oc2ccc(-c3ccc(C(C)(C)C)cc3)cc2C1C(C#N)C(=O)OCC (stereo not given)
classification: 1

compound: CCOC(=O)C1=C(N)Oc2ccc(CC)cc2C1C(C#N)C(=O)OCC (stereo not given)
classification: 0

compound: CCOC(=O)C1=C(N)Oc2ccc(C)cc2C1C(C#N)C(=O)OCC (stereo not given)
classification: 0

## Task Find out if reported GI50 for CCOC(=O)C1=C(N)Oc2ccc(-c3ccccc3)cc2C1C(C#N)C(=O)OCC (stereo not given) is less than 10 µM
## Result 1

## Task Find out if reported GI50 for CCOC(=O)C1=C(N)Oc2ccccc2C1C(C#N)C(=O)OCC (stereo not given) is less than 10 µM
## Result 0

## Task Find out if reported GI50 for CCCc1ccc2c(c1)C(C(C#N)C(=O)OCC)C(C(=O)OCC)=C(N)O2 (stereo not given) is less than 10 µM
## Result 1

## Task Find out if reported GI50 for `COc1cccc2c1C(=O)c1c(O)c3c(c(O)c1C2=O)C[C@@](O)(C(=O)CO)C[C@@H]3O[C@H]1C[C@H](N)[C@H](O)[C@H](C)O1` is less than 10 µM
## Result 0

## Task Find out if reported GI50 for `CC(=O)O[C@H]1C(=O)[C@@]2(C)[C@H]([C@H](OC(=O)c3ccccc3)[C@]3(O)C[C@H](OC(=O)[C@H](O)[C@@H](NC(=O)c4ccccc4)c4ccccc4)C(C)=C1C3(C)C)[C@]1(OC(C)=O)CO[C@@H]1C[C@@H]2O` is less than 10 µM
## Result 0
